Please go through the items and note down their IC50 at 72 h.
- test.protocol: Cytotoxicity assay, resazurin
- Format: cell-based
- experimental.parameters: human, MRC-5 SV2 cells (human fetal lung fibroblasts)
Provide only the numeric value, understood in µg/mL.

Ask | Can you share its IC50 at 72 h? I mean this compound: CC(C)=CCC/C(C)=C/CC/C(C)=C/CC/C(C)=C/C[n+]1cn(C)c2nc[n-]/c(=N\OCc3ccccc3)c21
Reply | 3.2

Ask | Can you share its IC50 at 72 h? I mean this compound: CO/N=c1\[n-]cnc2c1[n+](C/C=C(\C)CC/C=C(\C)CC/C=C(\C)CCC=C(C)C)cn2CCC#N
Reply | 0.49

Ask | Can you share its IC50 at 72 h? I mean this compound: C=C1CC[C@H]2C(C)(C)CCC[C@]2(C)[C@H]1CC/C(C)=C/Cn1c[n+](C)c2nc[n-]/c(=N\OC(C)(C)C)c21
Reply | 0.45

Ask | Can you share its IC50 at 72 h? I mean this compound: CC(C)=CCC/C(C)=C/CC/C(C)=C/CC/C(C)=C/Cn1cnc2c(N)ncnc21
Reply | 2.7

src = paper PMC6253839
